target: mouse serum albumin (mouse, UniProt P07724 25-608); assay: ProteOn kinetic analysis
ENDPOINT NAME: Kd (nM)
Lab book: enter the figure in nM, no units written.

Documented Kd of SEQ ID NO 10 (VHH, also called R at position 30) VHH: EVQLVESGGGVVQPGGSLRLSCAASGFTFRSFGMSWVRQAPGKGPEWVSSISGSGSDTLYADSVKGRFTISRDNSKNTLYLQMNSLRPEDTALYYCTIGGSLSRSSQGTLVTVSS : 6.8

Documented Kd of SEQ ID NO 129 (VHH, also called T at position 30) VHH: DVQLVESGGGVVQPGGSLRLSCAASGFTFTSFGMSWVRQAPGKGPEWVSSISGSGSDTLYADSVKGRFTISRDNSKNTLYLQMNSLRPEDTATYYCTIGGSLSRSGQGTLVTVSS : 27

Documented Kd of SEQ ID NO 145 (VHH, also called T at position 30) VHH: DVQLVESGGGVVQPGGSLRLSCAASGFTFTSFGMSWVRQAPGKGPEWVSSISGSGSDTLYADSVKGRFTISRDNSKNTLYLQMNSLRPEDTAAYYCTIGGSLSRSGQGTLVTVSS : 27

Documented Kd of SEQ ID NO 127 (VHH, also called T at position 30) VHH: DVQLVESGGGVVQPGGSLRLSCAASGFTFTSFGMSWVRQAPGKGPEWVSSISGSGSDTLYADSVKGRFTISRDNSKNTLYLQMNSLRPEDTALYYCTIGGSLSRSGQGTLVTVSS : 21

Origin of the recorded values: patent US20220380445A1
